assay: Thermal stability of neat compound (solid state, HPLC); type: physicochemical; details: solid state, 40 °C, 2 Wks, in the dark; read-out: % Initial

Compound: CC(C)(N)C(=O)N[C@H](COCc1ccccc1)C(=O)N1CCC2(CC1)CN(S(C)(=O)=O)c1ccccc12 [Form II]
remaining at 336 h [%]: 101

* * *

assay: Hygroscopicity: storage of solid forms in constant relative humidity chambers; type: physicochemical; details: 47% RH, room temperature, 48 hrs
# Lookup of reported % Gain/Loss keyed by entry

Compound: CC(C)(N)C(=O)N[C@H](COCc1ccccc1)C(=O)N1CCC2(CC1)CN(S(C)(=O)=O)c1ccccc12 [Form III]
% Gain/Loss: +3.99%
--
Compound: CC(C)(N)C(=O)N[C@H](COCc1ccccc1)C(=O)N1CCC2(CC1)CN(S(C)(=O)=O)c1ccccc12 [Form IV]
% Gain/Loss: +0.7%
--
Compound: CC(C)(N)C(=O)N[C@H](COCc1ccccc1)C(=O)N1CCC2(CC1)CN(S(C)(=O)=O)c1ccccc12 [Form II]
% Gain/Loss: +0.39%
--
Compound: CC(C)(N)C(=O)N[C@H](COCc1ccccc1)C(=O)N1CCC2(CC1)CN(S(C)(=O)=O)c1ccccc12 [Form I]
% Gain/Loss: +0.21%
